- system.tested: hCA IX (Homo sapiens)
- Construct: made in house
- protocol.description: stopped-flow CO2 hydrase assay, hCA IX
- Format: biochemical
- run.conditions: recombinant enzyme; errors ± 5–10%, 3 assays
readout: pKi
Answers are plain numbers, as −log10 of the molar value.

O=C(O)c1ccc(NCCc2ccc(Cl)cc2)c([N+](=O)[O-])c1 :: 6.82
CC1OC(Nc2cc(C(=O)O)cc([N+](=O)[O-])c2)C(O)C(O)C1O (stereo not drawn) :: 6.97
O=C(Cc1ccccc1)Nc1ccc(C(=O)O)cc1 :: 7.14
N#Cc1ccc(NCCc2ccccc2)c([N+](=O)[O-])c1 :: 7.10
O=C(O)c1ccc(NCc2cccnc2)c([N+](=O)[O-])c1 :: 6.97

Shifting focus to the compound that follows.
pKi of `CC(=O)Nc1cccc(Nc2c([N+](=O)[O-])cc(C(=O)O)cc2[N+](=O)[O-])c1` on hCA IX (Homo sapiens)?
7.09

Hello, the source for this data is paper PMC5943959, in case you need it.
